All figures here come from paper PMC8979514.

Experiment: in vitro
Format: cell-based, human
Conditions: human; 100 µM, 24 h incubation, MTT, mean ± SD; read-out: Cells viability of SH-SY5Y cell line (% of control)
Item-by-item account of viability at 100 µM

These solved cases illustrate the format of a correct answer.
>  <chem smiles>
O=P(NCCCCCCNc1c2c(nc3ccccc13)CCCC2)(Oc1ccccc1)Oc1ccccc1

>  <recorded result>
30.1%

$$$$
>  <chem smiles>
O=P(NCCCCCCCCNc1c2c(nc3ccccc13)CCCC2)(Oc1ccccc1)Oc1ccccc1

>  <recorded result>
48.1%

$$$$
>  <chem smiles>
CCOP(=O)(OCC)OCCCNc1c2c(nc3ccccc13)CCCC2

>  <recorded result>
83.5%

$$$$
>  <chem smiles>
CCOP(=O)(OCC)OCCNCCNc1c2c(nc3ccccc13)CCCC2

>  <recorded result>
81.1%

$$$$

Then there is this compound:
## Input Which viability at 100 µM reading was recorded for the compound `CCOP(=O)(NCCCCCCCCCCCCNc1c2c(nc3ccccc13)CCCC2)OCC` ?
## Output 31.1%

* * *

Biological target: butyrylcholinesterase (BChE, E.C. 3.1.1.8) (Equus caballus, UniProt P81908)
Construct: purchased Sigma Aldrich
Sequence (P81908 whole entry): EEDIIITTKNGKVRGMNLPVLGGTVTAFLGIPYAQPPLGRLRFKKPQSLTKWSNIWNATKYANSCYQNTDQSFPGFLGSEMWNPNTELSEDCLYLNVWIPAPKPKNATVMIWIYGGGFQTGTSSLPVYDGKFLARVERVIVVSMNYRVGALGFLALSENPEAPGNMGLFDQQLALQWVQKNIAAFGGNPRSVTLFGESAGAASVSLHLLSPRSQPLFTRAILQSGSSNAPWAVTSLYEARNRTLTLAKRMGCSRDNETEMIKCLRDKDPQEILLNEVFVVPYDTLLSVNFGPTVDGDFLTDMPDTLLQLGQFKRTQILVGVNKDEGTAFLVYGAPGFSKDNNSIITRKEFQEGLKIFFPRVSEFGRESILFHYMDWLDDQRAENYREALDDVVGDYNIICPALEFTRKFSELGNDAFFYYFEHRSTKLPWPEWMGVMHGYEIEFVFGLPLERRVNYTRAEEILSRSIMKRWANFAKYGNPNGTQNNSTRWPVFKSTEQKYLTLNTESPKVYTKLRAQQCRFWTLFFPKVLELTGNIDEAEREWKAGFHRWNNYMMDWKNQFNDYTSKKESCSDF
Assay: biochemical
Parameters: species or system equine serum
Settings: BChE from equine serum, Ellman's method, phosphate buffer pH 7.5, room temperature; read-out: IC50 BChE
Item-by-item account of IC50

These solved cases illustrate the format of a correct answer.
>  <molecule>
CCOP(=O)(OCC)OCCCNc1c2c(nc3ccccc13)CCCC2 [Compound 16]

>  <recorded result>
17.1 nM

$$$$
>  <molecule>
O=P(NCCCCCCNc1c2c(nc3ccccc13)CCCC2)(Oc1ccccc1)Oc1ccccc1 [Compound 7]

>  <recorded result>
41.1 nM

$$$$

## Input IC50 of CCOP(=O)(OCC)OCCNCCNc1c2c(nc3ccccc13)CCCC2 [Compound 19] on butyrylcholinesterase (BChE, E.C. 3.1.1.8) (Equus caballus, UniProt P81908)?
## Output 111 nM

## Input IC50 of CCOP(=O)(NCCCCCCCCCCCCNc1c2c(nc3ccccc13)CCCC2)OCC [Compound 11] on butyrylcholinesterase (BChE, E.C. 3.1.1.8) (Equus caballus, UniProt P81908)?
## Output 65.5 nM

## Input IC50 of O=P(NCCCCCCCCNc1c2c(nc3ccccc13)CCCC2)(Oc1ccccc1)Oc1ccccc1 [Compound 10] on butyrylcholinesterase (BChE, E.C. 3.1.1.8) (Equus caballus, UniProt P81908)?
## Output 188 nM

* * *

Molecular target: Acetylcholinesterase (eeAChE, E.C. 3.1.1.7) (Electrophorus electricus)
Construct: purchased Sigma Aldrich
Assay: biochemical
Assay type: biochemical, electric eel
Settings: IC50 AChE, eeAChE, Ellman's method, phosphate buffer pH 7.5, room temperature
property measured: pIC50
// pIC50: -log10(molar conc.)

These solved cases illustrate the format of a correct answer.
>  <chem smiles>
O=P(OCCNCCNc1c2c(nc3ccccc13)CCCC2)(Oc1ccccc1)Oc1ccccc1

>  <pIC50>
6.30

$$$$
>  <chem smiles>
O=P(NCCCCCCCCCCCCNc1c2c(nc3ccccc13)CCCC2)(Oc1ccccc1)Oc1ccccc1

>  <pIC50>
8.00

$$$$

## Input Which pIC50 reading was recorded for the molecule `CCCCOP(=O)(NCCCCCCCCNc1c2c(nc3ccccc13)CCCC2)OCCCC` ?
## Output 8.09

## Input Which pIC50 reading was recorded for the molecule `CCOP(=O)(NCCCCCCCCNc1c2c(nc3ccccc13)CCCC2)OCC` ?
## Output 8.21

* * *

Assay: in vitro
Type: cell-based, human
Conditions: human; 12.5 µM, 24 h incubation, MTT, mean ± SD; read-out: Cells viability of SH-SY5Y cell line (% of control)
Item-by-item account of viability at 24 h, 12.5 µM
Write down the numeric answer in % and omit the unit.

These solved cases illustrate the format of a correct answer.
>  <chem smiles>
CCCCOP(=O)(NCCCCCCCCNc1c2c(nc3ccccc13)CCCC2)OCCCC

>  <unit>
%

>  <viability at 24 h, 12.5 µM>
77.5

$$$$
>  <chem smiles>
O=P(OCCCNc1c2c(nc3ccccc13)CCCC2)(Oc1ccccc1)Oc1ccccc1

>  <unit>
%

>  <viability at 24 h, 12.5 µM>
79.5

$$$$
>  <chem smiles>
CCCCOP(=O)(NCCCCCCCCCCCCNc1c2c(nc3ccccc13)CCCC2)OCCCC

>  <unit>
%

>  <viability at 24 h, 12.5 µM>
69.3

$$$$
>  <chem smiles>
CCCCOP(=O)(OCCCC)OCCNCCNc1c2c(nc3ccccc13)CCCC2

>  <unit>
%

>  <viability at 24 h, 12.5 µM>
78.9

$$$$

Then there is this molecule:
## Input Which viability at 24 h, 12.5 µM reading was recorded for the molecule `CCCCOP(=O)(OCCCC)OCCCNc1c2c(nc3ccccc13)CCCC2` ?
## Output 94.4

* * *

Biological target: Acetylcholinesterase (eeAChE, E.C. 3.1.1.7) (Electrophorus electricus, UniProt O42275)
Construct: purchased Sigma Aldrich
Sequence (O42275 24-633): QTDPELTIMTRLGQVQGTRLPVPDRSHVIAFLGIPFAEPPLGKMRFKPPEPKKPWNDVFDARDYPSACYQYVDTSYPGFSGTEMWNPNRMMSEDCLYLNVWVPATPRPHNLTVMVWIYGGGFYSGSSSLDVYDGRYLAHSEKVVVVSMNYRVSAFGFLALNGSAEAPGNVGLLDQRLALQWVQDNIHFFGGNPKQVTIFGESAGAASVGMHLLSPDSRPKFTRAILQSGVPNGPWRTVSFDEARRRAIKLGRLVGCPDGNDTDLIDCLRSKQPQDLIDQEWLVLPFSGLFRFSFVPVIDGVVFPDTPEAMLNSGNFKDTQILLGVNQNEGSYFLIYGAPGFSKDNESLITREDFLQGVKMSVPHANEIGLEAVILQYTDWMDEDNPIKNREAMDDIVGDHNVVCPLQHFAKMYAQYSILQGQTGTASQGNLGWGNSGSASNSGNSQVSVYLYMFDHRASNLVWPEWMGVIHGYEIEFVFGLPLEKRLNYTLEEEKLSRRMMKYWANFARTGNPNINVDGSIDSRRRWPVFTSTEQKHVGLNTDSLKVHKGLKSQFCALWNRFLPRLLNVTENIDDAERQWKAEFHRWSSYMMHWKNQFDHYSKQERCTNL
Experiment: biochemical
Type: biochemical, electric eel
Details: ratio of IC50 values
property measured: Selectivity IC50(eeAChE)/ IC50(BChE)
// return just the number, without any unit appended

These solved cases illustrate the format of a correct answer.
>  <compound>
CCOP(=O)(NCCCCCCCCNc1c2c(nc3ccccc13)CCCC2)OCC [Compound 8]

>  <Selectivity IC50(eeAChE)/ IC50(BChE)>
0.48

$$$$
>  <compound>
O=P(NCCCCCCNc1c2c(nc3ccccc13)CCCC2)(Oc1ccccc1)Oc1ccccc1 [Compound 7]

>  <Selectivity IC50(eeAChE)/ IC50(BChE)>
3.04

$$$$
>  <compound>
CCCCOP(=O)(OCCCC)OCCCNc1c2c(nc3ccccc13)CCCC2 [Compound 17]

>  <Selectivity IC50(eeAChE)/ IC50(BChE)>
3.78

$$$$

Then there is this compound:
## Input Selectivity IC50(eeAChE)/ IC50(BChE) of CCOP(=O)(OCC)OCCNCCNc1c2c(nc3ccccc13)CCCC2 [Compound 19] on Acetylcholinesterase (eeAChE, E.C. 3.1.1.7) (Electrophorus electricus, UniProt O42275)?
## Output 6.08

* * *

Molecular target: Acetylcholinesterase (eeAChE, E.C. 3.1.1.7) (Electrophorus electricus, UniProt O42275)
Construct: purchased Sigma Aldrich
Assay: biochemical
Type: biochemical, electric eel
Conditions: IC50 AChE, eeAChE, Ellman's method, phosphate buffer pH 7.5, room temperature
Labelling: IC50 reported below 30 nM becomes y; at or above becomes n.

Worked cases, answers included:
>  <chem smiles>
CCCCOP(=O)(OCCCC)OCCNCCNc1c2c(nc3ccccc13)CCCC2

>  <class label>
n

$$$$
>  <chem smiles>
CCCCOP(=O)(OCCCC)OCCCNc1c2c(nc3ccccc13)CCCC2

>  <class label>
n

$$$$
>  <chem smiles>
CCOP(=O)(NCCCCCCNc1c2c(nc3ccccc13)CCCC2)OCC

>  <class label>
n

$$$$
>  <chem smiles>
CCCCOP(=O)(NCCCCCCCCCCCCNc1c2c(nc3ccccc13)CCCC2)OCCCC

>  <class label>
y

$$$$

Next up:
## Input Could you please tell me whether IC50 recorded for `O=P(OCCCNc1c2c(nc3ccccc13)CCCC2)(Oc1ccccc1)Oc1ccccc1` is less than 30 nM?
## Output n
